Parameter: clearance. Scope: all listed entries.
Assay: Clearance in Sprague-Dawley rat at 1 mg/kg, iv measured upto 24 hrs by LC/MS-MS analysis
Format: ADME, organism-based
Conditions: in vivo
Numeric answer only, unit mL/min/kg assumed.

// known answers, use as guide
INSERT INTO assay_data (chemicalstring, assayendpoint, unitabbrev, numericvalue) VALUES
  ('Cn1nccc1-c1cc(C(F)(F)F)ccc1[C@H]1CCOc2cc(S(=O)(=O)Nc3ncccn3)ccc21', 'clearance', 'mL/min/kg', 3),
  ('O=S(=O)(Nc1ncccn1)c1ccc2c(c1)OCC[C@@H]2c1ccc(C(F)(F)F)cc1-c1ccc(F)nc1', 'clearance', 'mL/min/kg', 2),
  ('Cn1nccc1-c1cc(C(F)(F)F)ccc1[C@H]1CCc2cc(S(=O)(=O)Nc3ncccn3)ccc21', 'clearance', 'mL/min/kg', 4.9);

Turning to the following compound.
*Q* Entry "O=S(=O)(Nc1ncccn1)c1ccc2c(c1)OCC[C@@H]2c1ccc(C(F)(F)F)cc1N1CCOCC1" has what clearance?
*A* 5.1

====

Assay: Tmax in female cynomolgus monkey at 150 mg/kg, po
Assay type: ADME, organism-based, Macaca fascicularis
Settings: in vivo
assayEndpoint: Tmax (h)
Numeric answer only, unit h assumed.

*Q* Entry "Cn1nccc1-c1cc(C(F)(F)F)ccc1[C@H]1CCc2cc(S(=O)(=O)Nc3ncccn3)ccc21" has what Tmax?
*A* 1.5

====

Assay: Volume of distribution at steady state in BALB/c mouse at 1 mg/kg, iv measured upto 24 hrs by LC/MS-MS analysis
Type: ADME, organism-based
Conditions: in vivo, read-out: Vdss
assayEndpoint: Vd (L/kg)
Numeric answer only, unit L/kg assumed.

INSERT INTO assay_data (chemicalstring, assayendpoint, unitabbrev, numericvalue) VALUES
  ('O=S(=O)(Nc1nccs1)c1ccc2c(c1)OCC[C@@H]2c1ccc(C(F)(F)F)cc1-n1ccnn1', 'Vd', 'L/kg', 1),
  ('Cc1ccc(-c2cc(C(F)(F)F)ccc2[C@H]2CCOc3cc(S(=O)(=O)Nc4ncccn4)ccc32)cn1', 'Vd', 'L/kg', 0.6),
  ('Cn1nccc1-c1cc(C(F)(F)F)ccc1[C@H]1CCc2cc(S(=O)(=O)Nc3ncccn3)ccc21', 'Vd', 'L/kg', 0.8),
  ('Cn1nccc1-c1cc(C(F)(F)F)ccc1[C@H]1CCOc2cc(S(=O)(=O)Nc3ncccn3)ccc21', 'Vd', 'L/kg', 0.9),
  ('O=S(=O)(Nc1ncccn1)c1ccc2c(c1)OCC[C@@H]2c1ccc(C(F)(F)F)cc1N1CCOCC1', 'Vd', 'L/kg', 0.81),
  ('O=S(=O)(Nc1ncccn1)c1ccc2c(c1)OCC[C@@H]2c1ccc(C(F)(F)F)cc1-c1ccc(F)nc1', 'Vd', 'L/kg', 0.8);

*Q* Entry "Cn1nccc1-c1cc(C(F)(F)F)ccc1[C@H]1CCOc2cc(S(=O)(=O)Nc3nccs3)ccc21" has what Vd?
*A* 2.2

*Q* Can you handle "O=S(=O)(Nc1nccs1)c1ccc2c(c1)OCC[C@@H]2c1ccc(C(F)(F)F)cc1-c1ccc(F)nc1" next?
*A* 2.9

====

Test: Cmax in Beagle dog at 1 mg/kg, iv administered as infusion for 15 mins followed by compound washout and subsequent compound dosing at 5 mg/kg, po measured up to 24 hrs by LC/MS-MS analysis
Type: ADME, organism-based, Canis lupus familiaris
Conditions: in vivo
assayEndpoint: Cmax (µM)
Numeric answer only, unit µM assumed.

// known answers, use as guide
INSERT INTO assay_data (chemicalstring, assayendpoint, numericvalue) VALUES
  ('Cc1ccc(-c2cc(C(F)(F)F)ccc2[C@H]2CCOc3cc(S(=O)(=O)Nc4ncccn4)ccc32)cn1', 'Cmax', 8.5),
  ('Cn1nccc1-c1cc(C(F)(F)F)ccc1[C@H]1CCOc2cc(S(=O)(=O)Nc3ncccn3)ccc21', 'Cmax', 10);

Turning to the following compound.
*Q* Entry "O=S(=O)(Nc1ncccn1)c1ccc2c(c1)OCC[C@@H]2c1ccc(C(F)(F)F)cc1-c1ccc(F)nc1" has what Cmax?
*A* 14
